system: SNARK; construct: gene NUAK2; settings: concentration: 1 μM, replicates: in singlicate; n = 1;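 further: KINOMEscan kinase panel screen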
measure-name: %Inh (%)

- compound: "Cc1ccc(NC(=O)c2cccc(N3CCCCC3)c2)cc1-c1ccc(C(=O)NCC2CC2)cc1 [GSK1917008]"
  measure-name: "%Inh"
  obs-value: 0
- compound: "Cl.O=C(Nc1ccc(Oc2ccc3[nH]c(NC(=O)c4ccco4)nc3c2)cc1)Nc1cc(C(F)(F)F)ccc1F [GW683134]"
  measure-name: "%Inh"
  obs-value: 0
- compound: "CN1CCN(Cc2ccc(NC(=O)Nc3ccc(N(C)c4ccnc(Nc5ccc(CS(C)(=O)=O)cc5)n4)cc3)cc2)CC1.Cl [GW827654]"
  measure-name: "%Inh"
  obs-value: 59
- compound: "CC(C)(C)c1ccc(C(=O)Nc2cn3cc(-n4ccnc4)ccc3n2)cc1"
  measure-name: "%Inh"
  obs-value: 79
- compound: "O=C(O)C(F)(F)F.O=c1[nH]ccc2nc(N[C@@H]3CCNC3)nc(Nc3cc(Cl)cc(Cl)c3)c12 [GSK2188764]"
  measure-name: "%Inh"
  obs-value: 98.8
- compound: "COC(=O)Nc1nc2ccc(Oc3ccc(CC(=O)Nc4cc(C(F)(F)F)ccc4F)cc3)cc2[nH]1 [GW680903]"
  measure-name: "%Inh"
  obs-value: 0

Where these numbers come from: paper PMC5540273
